- Tested on: Human papillomavirus type 1a protein E7 (residues 44-93)
- experiment: HPV1a E7 fragment binders on microarrays, primary screen, biochemical, small-molecule microarray, residues 44-93, 635 nm fluorescence (AID 1108);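 note: E7 fragment applied at 1 µg/mL in TBST for 1 h at 4 C; score combines spot fluorescence with its signal to noise ratio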
- condition-summary: small-molecule microarray binding, fluorescence 635 nm; higher = more signal
Would you mind classing the entries by composite z-score? Ranges: class 1 (below -0.5), class 2 (-0.5 to below 0.4), class 3 (0.4 or more)

compound: C=CCC(OC(C)=O)[C@@H]1[C@@H](N(Cc2cccc3ccccc23)C(=O)Cc2ccc(OC)cc2)c2cc(OCCCO)ccc2N1C(=O)Cc1ccc(OC)cc1 (stereo partly specified)
answer-label: class 2
--
compound: CO[C@H]1O[C@H](CO)[C@@H](OC(=O)Nc2ccccc2)[C@H](OC(=O)Nc2ccc3c(c2)OCO3)[C@H]1OC(=O)Nc1ccc2c(c1)OCO2
answer-label: class 3
--
compound: CC(C)C[C@@H]1NC(=O)[C@H]2C[C@@H](C(=O)NCCCC[N+](C)(C)C)[C@@H](c3cccc(OCCO)c3)N2C1=O
answer-label: class 1

Prompt: Field: class (composite z-score) — entry: COCCCN1C(=O)[C@@]2(Cc3ccccc31)c1ccccc1C(=O)N(Cc1ccccc1Cl)[C@H]2c1ccc(CO)cc1
Completion: class 2

Prompt: Field: class (composite z-score) — entry: CC(C)C[C@@H]1NC(=O)[C@@H]2C[C@H](C(=O)NCCCCCNC(=O)CS)[C@H](c3cccc(OCCO)c3)N2C1=O
Completion: class 3

Prompt: Field: class (composite z-score) — entry: NCCCCCCNC(=O)[C@@H]1C[C@@H]2C(=O)N[C@@H](Cc3ccccc3)C(=O)N2[C@@H]1c1ccc(O)cc1
Completion: class 3

Prompt: Field: class (composite z-score) — entry: CN1C=C(C(=O)OCCS(C)(=O)=O)C(C(=O)OCCS(C)(=O)=O)=CC(CCCO)=CC1c1cccs1 (stereo unspecified)
Completion: class 2

Prompt: Field: class (composite z-score) — entry: COc1ccc([Si](C)(C)[C@H]2[C@H](CC(=O)N(CCO)Cc3ccccc3)O[C@@]3(C(=O)N(Cc4cccc(N5C(=O)COc6ccccc65)c4)c4ccccc43)[C@@H]2C)cc1
Completion: class 1

Prompt: Field: class (composite z-score) — entry: COCCCNC(=O)[C@@]1(C)c2ccccc2C(=O)N(Cc2cc(F)cc(C(F)(F)F)c2)[C@H]1c1ccc(CO)cc1
Completion: class 1

Prompt: Field: class (composite z-score) — entry: Cc1ccc(S[C@]2(C(=O)NC3CC3)CC(=O)N(Cc3ccccc3C(F)(F)F)[C@@H]2c2ccc(CO)cc2I)cc1
Completion: class 2

====

Reported z-score values for a set of compounds
- experiment: E. coli acrAB mutant growth effects, primary screen, E. coli filamentation inducers, strain DRC39, OD650, 24 h (AID 1178);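 note: growth measured as culture turbidity by optical density at 650 nm; test concentration not given here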
- condition-summary: higher = more signal, called active from +8 up or from −8 down
Calls of active or inactive are those of the source.

// known answers, use as guide
compound: CC(C)N1CC=CC23O[C@@H]4/C=C\CCCOC(=O)C4[C@H]2C(=O)N(CCCO)[C@@H]3C1=O (some centres undefined)
z-score: 1.36 (inactive)
//
compound: COC(=O)C1=CC(CCCO)=CC(C2CC2)N(Cc2cc3c(cc2Br)OCO3)C=C1C(=O)OC (centres undefined)
z-score: 0.489 (inactive)
//
compound: Cc1ccc(S[C@]2(C(=O)NC3CC3)CC(=O)N(Cc3ccccc3C(F)(F)F)[C@@H]2c2ccc(CO)cc2I)cc1
z-score: 0.413 (inactive)
//
compound: COCCCNC(=O)[C@@]1(C)c2ccccc2C(=O)N(Cc2cc(F)cc(C(F)(F)F)c2)[C@H]1c1ccc(CO)cc1
z-score: 1.04 (inactive)
//
compound: COc1ccc([Si](C)(C)[C@H]2[C@H](CC(=O)N(CCO)Cc3ccccc3)O[C@@]3(C(=O)N(Cc4cccc(N5C(=O)COc6ccccc65)c4)c4ccccc43)[C@@H]2C)cc1
z-score: 2.07 (inactive)
//
compound: CC(C)C(=C=CC[C@@H](O)c1ccc(CO)o1)CCO
z-score: 2.09 (inactive)
//
compound: C=CC[C@@H](OC(=O)Nc1ccc(SC)cc1)c1ccc(OCCO)cc1
z-score: 1.28 (inactive)
//
compound: CC(C)[Si](C#C[Si](C(C)C)(C(C)C)C(C)C)(O[C@H](C)c1cn([C@H](C)c2ccccc2)nn1)C(C)C
z-score: 2.06 (inactive)
//
compound: CN1C=C(C(=O)OCCS(C)(=O)=O)C(C(=O)OCCS(C)(=O)=O)=CC(CCCO)=CC1c1cccs1 (centres undefined)
z-score: 1.26 (inactive)
//
compound: [N-]=[N+]=NCc1ccccc1C[C@]1(C(=O)NCc2ccccc2)N=C(c2ccc(OCCCO)cc2)O[C@H]1c1ccccc1
z-score: 3.49 (inactive)

The compound listed as COc1ccc([Si](C)(C)[C@@H]2[C@@H](CCn3cc([C@H](O)c4ccccc4)nn3)O[C@]3(C(=O)N(C)c4c(Br)cc(C)cc43)[C@H]2C)cc1 shows z-score equal to 2.5 (inactive)

The compound listed as [N-]=[N+]=Nc1ccccc1[C@H]1OC(c2ccc(OCCCO)cc2)=N[C@@]1(Cc1ccccc1)C(N)=O shows z-score equal to 2.24 (inactive)

The compound listed as COCCCNC(=O)[C@@]1(Cc2ccccc2CN=[N+]=[N-])COC(c2ccc(OCCCO)cc2)=N1 shows z-score equal to 2 (inactive)
